System: johnsongrass (Sorghum halepense, SORHA)
Experiment: Pre-emerge test, greenhouse herbicide activity screening
Format: in vivo
Conditions: 250 g ai/ha; rating scale 0-100, 14 days after application
endpoint: Pre-emerge herbicidal activity, phytotoxicity rating SORHA
Response field accepts a number only; no unit should be typed.

### Prompt Hi! What's the reported Pre-emerge herbicidal activity, phytotoxicity rating SORHA for CCOC(=O)C(C)(Cl)Cc1c(OC)c(Cl)cc(F)c1-n1c(=O)cc(C(F)(F)F)n(C)c1=O (stereo not shown) on johnsongrass (Sorghum halepense, SORHA)?
### Response 30

### Prompt Then COCCOC(=O)C(Cl)Cc1c(OC)c(Cl)cc(F)c1-n1c(=O)cc(C(F)(F)F)n(C)c1=O (stereo not shown) ?
### Response 100

### Prompt Then COc1c(Cl)cc(F)c(-n2c(=O)cc(C(F)(F)F)n(C)c2=O)c1CC(C)(Cl)C(=O)OC(C(F)(F)F)C(F)(F)F (stereo not shown) ?
### Response 0

### Prompt Then COc1c(Cl)cc(F)c(-n2c(=O)cc(C(F)(F)F)n(C)c2=O)c1CC(Cl)C(=O)OCCC(C)C (single isomer, unassigned) ?
### Response 0

* * *

Exercise: state measured phytotoxicity rating IPOHE for each of the compounds provided.
System: ivyleaf morningglory (Ipomoea hederacea, IPOHE)
Test: Pre-emerge test, greenhouse herbicide activity screening
Assay type: in vivo
Details: pre-emerge, 250 g ai/ha, 14 days after application, scale 0-100
Response field accepts a number only; no unit should be typed.

### Prompt Hi! What's the reported phytotoxicity rating IPOHE for `COc1c(Cl)cc(F)c(-n2c(=O)cc(C(F)(F)F)n(C)c2=O)c1NC(=O)C=Cc1ccccc1[N+](=O)[O-]` on ivyleaf morningglory (Ipomoea hederacea, IPOHE)?
### Response 90

### Prompt Then `COc1c(Cl)cc(F)c(-n2c(=O)cc(C(F)(F)F)n(C)c2=O)c1NC(=O)CCc1ccccc1C` ?
### Response 70

### Prompt Then `C=Cc1ccc(C(=O)N(C(=O)c2ccc(C=C)cc2)c2c(OC)c(Br)cc(F)c2-n2c(=O)cc(C(F)(F)F)n(C)c2=O)cc1` ?
### Response 0

### Prompt Then `C=Cc1ccc(C(=O)Nc2c(OC)c(Br)cc(F)c2-n2c(=O)cc(C(F)(F)F)n(C)c2=O)cc1` ?
### Response 100

* * *

Test system: upland rice (Oryza sp., var. Tebonnet, RICE)
Assay: Pre-emerge test, crop safety
Assay type: in vivo
Details: pre-emerge, 250 g ai/ha, 14 days after application, rating scale 0-100
Exercise: state measured phytotoxicity rating RICE for each of the compounds provided.
Response field accepts a number only; no unit should be typed.

### Prompt Which value of phytotoxicity rating RICE has been reported for `COc1cc(Cl)cc(Cl)c1-n1c(=O)cc(C(F)(F)F)n(C)c1=O` in the records?
### Response 0

### Prompt Then CCOC(=O)C(Cl)Cc1c(C)c(Cl)cc(F)c1-n1c(=O)cc(C(F)(F)F)n(C)c1=O (centres unmarked) ?
### Response 15

### Prompt Then `COc1c(Cl)cc(F)c(-n2c(=O)cc(C(F)(F)F)n(C)c2=O)c1NN=CC1CC1` ?
### Response 100

### Prompt Then `COc1c(Cl)cc(F)c(-n2c(=O)cc(C(F)(F)F)n(C)c2=O)c1NN=Cc1ccc(F)cc1F` ?
### Response 100

### Prompt Then CCOC(=O)C(Cl)Cc1cc(Cl)cc(F)c1-n1nc(C)n(C(F)F)c1=O (centres unmarked) ?
### Response 0

### Prompt Then CCOC(=O)C(Cl)Cc1c(OC)c(Cl)cc(F)c1-n1nc(C(F)(F)F)n(C)c1=O (centres unmarked) ?
### Response 0

### Prompt Then `COc1c(Cl)cc(F)c(-n2c(=O)cc(C(F)(F)F)n(C)c2=O)c1NN=C1CCc2ccccc2C1` ?
### Response 99

### Prompt Then CCCOC(=O)C(Cl)Cc1c(OCC)c(Cl)cc(F)c1-n1c(=O)cc(C(F)(F)F)n(C)c1=O (centres unmarked) [14-66] ?
### Response 20

* * *

Tested on: velvetleaf (Abutilon theophrasti, ABUTH)
Test: Post-emerge test, greenhouse herbicide activity screening
Type: in vivo
Settings: Rate 63 g ai/ha; rating scale 0-100 (0 no damage, 100 complete death); 14 days after application
Label Condition met when Post-emerge Herbicidal Activity, phytotoxicity rating ABUTH < 70; otherwise Condition not met.

### Prompt Here's an entry: COc1c(Cl)cc(F)c(-n2c(=O)cc(C(F)(F)F)n(C)c2=O)c1CC(Cl)C(=O)OCCOc1ccccc1 (single isomer, unassigned) [14-28] . Is its Post-emerge Herbicidal Activity, phytotoxicity rating ABUTH below 70?
### Response Condition not met

### Prompt Then CCCOC(=O)C(Cl)Cc1c(OC)c(Cl)cc(F)c1-n1c(=O)cc(C(F)(F)F)n(C)c1=O (single isomer, unassigned) [14-7] ?
### Response Condition met

### Prompt Then COc1c(Cl)cc(F)c(-n2c(=O)cc(C(F)(F)F)n(C)c2=O)c1CC(Cl)C(=O)OCCC(C)C (single isomer, unassigned) ?
### Response Condition met

### Prompt Then CCCCCOC(=O)C(Cl)Cc1c(OC)c(Cl)cc(F)c1-n1c(=O)cc(C(F)(F)F)n(C)c1=O (single isomer, unassigned) ?
### Response Condition not met

### Prompt Then CCCOC(=O)C(Cl)Cc1c(OC)c(Cl)cc(F)c1-n1c(=O)cc(C(F)(F)F)n(C)c1=O (single isomer, unassigned) [14-6] ?
### Response Condition not met

### Prompt Then C=COC(=O)C(C)(Cl)Cc1c(OC)c(Cl)cc(F)c1-n1c(=O)cc(C(F)(F)F)n(C)c1=O (stereo not shown) ?
### Response Condition not met

### Prompt Then CCOC(=O)C(Cl)(CC(=O)OC)Cc1c(OC)c(Cl)cc(F)c1-n1c(=O)cc(C(F)(F)F)n(C)c1=O (stereo not shown) ?
### Response Condition met

### Prompt Then C#CCOC(=O)C(Cl)Cc1c(OC)c(Cl)cc(F)c1-n1c(=O)cc(C(F)(F)F)n(C)c1=O (single isomer, unassigned) ?
### Response Condition met

### Prompt Then COc1c(Cl)cc(F)c(-n2c(=O)cc(C(F)(F)F)n(C)c2=O)c1CC(Cl)C(=O)OCCC#N (stereo not shown) ?
### Response Condition met

### Prompt Then COc1c(Cl)cc(F)c(-n2c(=O)cc(C(F)(F)F)n(C)c2=O)c1CC(C)(Cl)C(=O)OC(C)C (stereo not shown) ?
### Response Condition not met

* * *

Tested on: sicklepod (Cassia obtusifolia, CASOB)
Test: Post-emerge test, greenhouse herbicide activity screening
Format: in vivo
Conditions: post-emerge, 250 g ai/ha, 14 days after application, rating scale 0-100
endpoint: CASOB phytotoxicity rating
Response field accepts a number only; no unit should be typed.

### Prompt Which value of CASOB phytotoxicity rating has been reported for `Cn1c(C(F)(F)F)cc(=O)n(-c2ccc(C#N)cc2NC(=O)C=Cc2ccccc2)c1=O` in the records?
### Response 95

### Prompt Then `COc1c(Cl)cc(F)c(-n2c(=O)cc(C(F)(F)F)n(C)c2=O)c1NC(=O)C(C#N)=Cc1ccccc1` ?
### Response 100

### Prompt Then `C=Cc1ccc(C(=O)N(C(=O)c2ccc(C=C)cc2)c2c(OC)c(Br)cc(F)c2-n2c(=O)cc(C(F)(F)F)n(C)c2=O)cc1` ?
### Response 0

### Prompt Then `COc1c(Cl)cc(F)c(-n2c(=O)cc(C(F)(F)F)n(C)c2=O)c1NC(=O)Cc1ccccc1` ?
### Response 50

### Prompt Then `COc1c(Cl)cc(F)c(-n2c(=O)cc(C(F)(F)F)n(C)c2=O)c1NC(=O)CCc1ccccc1C` ?
### Response 100

### Prompt Then `COc1c(Br)cc(F)c(-n2c(=O)cc(C(F)(F)F)n(C)c2=O)c1NC(=O)C=Cc1ccccc1` ?
### Response 100

### Prompt Then `Cn1c(C(F)(F)F)cc(=O)n(-c2c(F)cc(Cl)cc2NC2CC2)c1=O` ?
### Response 95

### Prompt Then `CCCSCC(=O)Nc1c(OC)c(Cl)cc(F)c1-n1c(=O)cc(C(F)(F)F)n(C)c1=O` ?
### Response 75

### Prompt Then `COc1c(Cl)cc(F)c(-n2c(=O)cc(C(F)(F)F)n(C)c2=O)c1NC(=O)C=Cc1ccccc1[N+](=O)[O-]` ?
### Response 60

### Prompt Then `COc1c(Cl)cc(Cl)c(-n2c(=O)cc(C(F)(F)F)n(C)c2=O)c1NC(=O)c1ccc2ccccc2c1` ?
### Response 85

### Prompt Then `COc1c(Cl)cc(F)c(-n2c(=O)cc(C(F)(F)F)n(C)c2=O)c1NC(=O)CSC(C)C` ?
### Response 70

### Prompt Then `Cn1c(C(F)(F)F)cc(=O)n(-c2ccccc2NC(=O)c2ccc3ccccc3c2)c1=O` ?
### Response 10
